Values from patent US8748468B2

# experiment-summary: Pharmacokinetics after intravenous and subcutaneous administration in cynomolgus monkeys
# Format: in vivo
# applied-conditions: cynomolgus monkey, plasma; Intravenous Solution, 1.76 mg/kg, n = 4; read-out: Vss
measured-quantity: Vd (L/kg)
Numbers only, in L/kg.

Which Vd value belongs to N=C(N)c1ccc2nc(-c3cc(CC(=O)N[C@@H](CC(=O)O)C(=O)O)cc(-c4cc(S(N)(=O)=O)ccc4O)c3O)[nH]c2c1 ?
0.43

====

# experiment-summary: Animal PK studies, subcutaneous, dog
# Type: in vivo
# applied-conditions: plasma, sc, subcutaneous injection, dogs, read-out: time to reach maximum plasma concentrations (Tmax)
measured-quantity: Tmax (min)
One number for each entry, in min.

# Tmax lookup, item N=C(N)c1ccc2nc(-c3cc(CC(=O)N[C@@H](CC(=O)O)C(=O)O)cc(-c4cc(S(N)(=O)=O)ccc4O)c3O)[nH]c2c1 [compound of Formula I]
30
